molecular target: HIV-1 JR-CSF Env N339A (HIV-1 isolate JR-CSF) (UniProt P20871); assay: cell-based or functional assay
PARAMETER: Fold IC50 increase relative to wild-type (fold)
Write the number in fold without appending the unit.

Below are worked cases with known answers.
Param item = PGT-125 (antibody, V domains shown) VH: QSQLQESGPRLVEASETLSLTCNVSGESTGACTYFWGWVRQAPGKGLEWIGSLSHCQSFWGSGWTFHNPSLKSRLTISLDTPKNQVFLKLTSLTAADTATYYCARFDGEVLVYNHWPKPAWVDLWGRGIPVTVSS VL: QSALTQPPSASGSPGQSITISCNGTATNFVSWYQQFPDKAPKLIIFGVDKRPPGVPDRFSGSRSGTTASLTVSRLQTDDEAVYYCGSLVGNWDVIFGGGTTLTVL ; retrieve measured Fold IC50 increase relative to wild-type. 0.9

Param item = PGT-123 (antibody, V domains shown) VH: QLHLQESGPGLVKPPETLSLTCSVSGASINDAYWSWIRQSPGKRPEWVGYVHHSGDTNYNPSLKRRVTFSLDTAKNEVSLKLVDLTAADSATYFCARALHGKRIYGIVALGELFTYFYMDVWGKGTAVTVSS VL: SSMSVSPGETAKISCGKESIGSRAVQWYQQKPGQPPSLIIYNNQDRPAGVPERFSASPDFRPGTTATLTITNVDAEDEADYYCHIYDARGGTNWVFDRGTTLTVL ; retrieve measured Fold IC50 increase relative to wild-type. 0.8

---
Param item = PGT-127 (antibody, V domains shown) VH: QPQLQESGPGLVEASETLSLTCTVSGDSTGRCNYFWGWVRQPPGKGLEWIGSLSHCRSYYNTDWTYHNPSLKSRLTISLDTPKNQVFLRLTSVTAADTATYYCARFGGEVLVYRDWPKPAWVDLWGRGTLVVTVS VL: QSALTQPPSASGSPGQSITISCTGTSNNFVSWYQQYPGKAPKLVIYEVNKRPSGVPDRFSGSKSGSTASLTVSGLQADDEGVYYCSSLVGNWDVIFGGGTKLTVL ; retrieve measured Fold IC50 increase relative to wild-type. 1.1

Param item = PGT-131 (antibody, V domains shown) VH: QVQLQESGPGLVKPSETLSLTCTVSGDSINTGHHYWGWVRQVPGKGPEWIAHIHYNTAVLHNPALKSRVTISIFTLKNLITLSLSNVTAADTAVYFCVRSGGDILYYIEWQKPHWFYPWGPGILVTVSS VL: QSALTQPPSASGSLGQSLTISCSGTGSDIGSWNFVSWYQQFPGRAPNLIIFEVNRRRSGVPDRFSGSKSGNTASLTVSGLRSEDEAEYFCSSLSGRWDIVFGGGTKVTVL ; retrieve measured Fold IC50 increase relative to wild-type. 1

Param item = PGT-128 (antibody, V domains shown) VH: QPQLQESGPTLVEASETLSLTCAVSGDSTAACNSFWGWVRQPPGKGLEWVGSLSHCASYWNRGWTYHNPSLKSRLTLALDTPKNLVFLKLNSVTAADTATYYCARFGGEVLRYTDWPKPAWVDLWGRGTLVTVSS VL: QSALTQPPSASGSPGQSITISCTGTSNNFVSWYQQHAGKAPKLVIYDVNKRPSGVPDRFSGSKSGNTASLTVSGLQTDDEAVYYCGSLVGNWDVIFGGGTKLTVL ; retrieve measured Fold IC50 increase relative to wild-type. 0.8

Param item = PGT-135 (antibody, V domains shown) VH: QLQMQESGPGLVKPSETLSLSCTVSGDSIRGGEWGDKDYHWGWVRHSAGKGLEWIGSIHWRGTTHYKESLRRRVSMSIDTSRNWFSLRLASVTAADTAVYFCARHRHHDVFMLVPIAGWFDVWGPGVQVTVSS VL: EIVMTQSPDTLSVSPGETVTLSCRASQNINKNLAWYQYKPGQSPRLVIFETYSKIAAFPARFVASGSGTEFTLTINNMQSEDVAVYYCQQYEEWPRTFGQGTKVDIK ; retrieve measured Fold IC50 increase relative to wild-type. 1.2
